# System: MEL28
# experimental details: Cytotoxicity of spisulosine analogs, MEL28 (after Berjeron et al)
# Assay type: cell-based
# condition description: MEL28; methodology after Berjeron et al; NA=not active; hydrochloride; read-out: Cytotoxicity IC50 MEL28
pIC50: −log10 of the molar value. Where a name gives a salt, the structure may show the parent alone.
measured metric: pIC50

{"molecule": "CCCCCCCCCCCCCCC[C@@H](O)[C@H](C)N [drawing 47, hydrochloride]", "quantitative readout": 6.51}

====

Attribute: IC50
# Tested on: Molt 3
# experimental details: Cytotoxicity MTS, leukemias/lymphomas, Molt 3
# Format: cell-based
# condition description: 4-Parameter Curve Fit, NA = not active, read-out: Cytotoxicity IC50 ALL (Acute lymphobalstic) Molt 3
measured metric: IC50 (nM)

{"compound": "CCCCCCCCCCCCCCCCCC(O)C(C)N (stereo not shown)", "measured metric": "IC50", "result units": "nM", "quantitative readout": 7610}
{"compound": "CCCCCCCCCCCCCCC(O)C(C)N (stereo not shown) [drawing 128]", "measured metric": "IC50", "result units": "nM", "quantitative readout": 26100}
{"compound": "CCCCCCCCCCCCCCC(O)C(C)N (stereo not shown) [drawing 126]", "measured metric": "IC50", "result units": "nM", "quantitative readout": 9.83}
{"compound": "CCCCCCCCCCCCCCCCC(O)C(C)N (stereo not shown)", "measured metric": "IC50", "result units": "nM", "quantitative readout": 1120}
{"compound": "CCCCCCCCCCCCCCCCCC(=O)[C@H](C)N [drawing 131]", "measured metric": "IC50", "result units": "nM", "quantitative readout": 14300}
{"compound": "CCCCCCCCCCCCCCCC(O)C(N)CC (stereo not shown) [drawing 127]", "measured metric": "IC50", "result units": "nM", "quantitative readout": 37.6}
{"compound": "CCCCCCCCCCCCCCCC(=O)C(N)CC (stereo not shown)", "measured metric": "IC50", "result units": "nM", "quantitative readout": 581}
